Tested on: K562/Dox
Assay: SRB cell viability assay, daunorubicin with/without wilforlide A pretreatment
Type: cell-based
Settings: Homo sapiens, K562, read-out: Drug IC50 after wilforlide A pre-Tx
observedProperty: pIC50
One number for each entry, as −log10 of the molar value.

Can you share its pIC50? I mean this compound: `COc1cccc2c1C(=O)c1c(O)c3c(c(O)c1C2=O)C[C@@](O)(C(C)=O)C[C@@H]3O[C@H]1C[C@H](N)[C@H](O)[C@H](C)O1`
4.87

* * *

Tested on: K562
Test: SRB cell viability assay, daunorubicin IC50
Assay type: cell-based
Conditions: Homo sapiens, 72 h, read-out: Drug IC50 no pre-Tx
observedProperty: IC50

Can you share its IC50? I mean this compound: COc1cccc2c1C(=O)c1c(O)c3c(c(O)c1C2=O)C[C@@](O)(C(C)=O)C[C@@H]3O[C@H]1C[C@H](N)[C@H](O)[C@H](C)O1 [daunorubicin]
1.05 µM
